# Test system: primary human airway basal cells (HBEC, luciferase-transduced)
# Assay details: proliferation (luciferase bioluminescence) Z score relative to plate mean; higher = more proliferation / more cells, active = 1.96 or more
# Condition label: donor: 1; 0.5 µM; library: ENZO Libraries; 4 days
// label = TRUE if proliferation is not less than -0.4, otherwise FALSE

In: Exam item: decide whether the reported proliferation for "O=C(c1ccc(Cl)cc1Cl)n1nnc2ccccc21" is at least -0.4.
Out: TRUE

In: Exam item: decide whether the reported proliferation for "N#CC(=C(/N)Sc1ccccc1N)/C(C#N)=C(/N)Sc1ccccc1N" is at least -0.4.
Out: FALSE

In: Exam item: decide whether the reported proliferation for "O=C(CCCN1C(=O)c2cccc3cccc(c23)C1=O)NO" is at least -0.4.
Out: TRUE

Next, consider the following molecule.
In: Exam item: decide whether the reported proliferation for "Nc1ncn([C@H]2C[C@H](O)[C@@H](CO)O2)c(=O)n1" is at least -0.4.
Out: TRUE
